- experimental-system: Inward rectifier potassium channel 2 (Homo sapiens) (UniProt P63252)
- Sequence (P63252 whole entry, looked up): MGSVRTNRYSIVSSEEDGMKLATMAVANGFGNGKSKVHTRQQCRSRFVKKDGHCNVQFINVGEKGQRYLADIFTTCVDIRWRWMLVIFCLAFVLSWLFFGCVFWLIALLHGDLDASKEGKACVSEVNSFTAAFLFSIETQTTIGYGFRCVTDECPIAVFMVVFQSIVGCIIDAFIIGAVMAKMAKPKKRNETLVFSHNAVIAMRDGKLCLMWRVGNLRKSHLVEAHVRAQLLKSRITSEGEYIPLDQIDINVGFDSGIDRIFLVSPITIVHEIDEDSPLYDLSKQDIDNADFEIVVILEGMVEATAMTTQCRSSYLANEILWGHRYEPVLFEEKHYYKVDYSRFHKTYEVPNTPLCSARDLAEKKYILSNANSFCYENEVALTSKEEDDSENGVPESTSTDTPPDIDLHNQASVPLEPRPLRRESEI
- assay-overview: Inhibition of Kir2.1 (unknown origin) by patch clamp method
endpoint-name: IC50

### Prompt Can you share its IC50? I mean this compound: C[C@H](CC[C@](C)(O)C(F)(F)F)[C@H]1CC[C@H]2[C@@H]3CC=C4C[C@@](C)(O)CC[C@]4(C)[C@H]3CC[C@]12C
### Response > 30 µM
